test system: NCI-H460; assay: NCI tumour cell line growth inhibition, 48 h
Calls of active or inactive are those of the source. Rule as the data show it: active = GI50 up to about 1.1 µM and inactive = higher.
Each entry below lists one item and its recorded GI50 value.

Compound: CC#CS(=O)(=O)c1ccccc1
GI50: 17.5 µM (inactive)
//
Compound: COc1cc2ccc1OCc1cccc(n1)COc1ccc(cc1OC)/C=N\CCNCC/N=C\2
GI50: > 100 µM (inactive)
//
Compound: CSCCCNC(=O)c1csc(-c2csc(CCNC(=O)CNC(=O)OC(C)(C)C)n2)n1
GI50: > 100 µM (inactive)

Entry under test: COc1ccc2c(c1)CCc1c-2n(CCN2CCOCC2)c2ccc(OC)cc12 . Its GI50 was 40.5 µM (inactive)

Entry under test: O=C(O)C1CC2(C1)CC(C(=O)O)C2 (stereo unspecified) . Its GI50 was > 100 µM (inactive)

Entry under test: C[C@@H]1CC[C@@H](C)[C@](C)(CCc2ccoc2)C/C=C\C=C/1C(=O)O . Its GI50 was > 50 µM (inactive)

Entry under test: CC(=O)OC(C)(C)/C=C/C(=O)[C@](C)(O)[C@H]1[C@H](O)C[C@@]2(C)[C@@H]3CC=C4[C@@H](C[C@H](O)C(=O)C4(C)C)[C@]3(CO)C(=O)C[C@]12C [CUCURBITACIN A] . Its GI50 was 0.184 µM (active)

Entry under test: COc1cc(Br)c(/C=N/N=C(\N)NO)cc1OC . Its GI50 was 5.22 µM (inactive)

====

test system: SK-MEL-28; test: NCI tumour cell line growth inhibition, 48 h
Activity calls are given as the source filed them. No stated cut-off is given here; in the data, active = GI50 up to about 1.1 µM and inactive = higher.
Observation Type: GI50

Compound: Cc1[nH]n(-c2ncc(C#N)c(=O)[nH]2)c(=O)c1CCO
Assay System: SK-MEL-28
Val: > 100 µM (inactive)
--
Compound: O=C(CCN1CCC(CCO)CC1)Nc1ccc2c(c1)C(=O)c1ccc(NC(=O)CCN3CCC(CCO)CC3)cc1C2=O
Assay System: SK-MEL-28
Val: 26.1 µM (inactive)
--
Compound: CN1c2ccccc2S(=O)(=O)n2c(CCc3ccccc3)nnc21
Assay System: SK-MEL-28
Val: > 100 µM (inactive)

Entry under test: C[C@@H]1C(=O)CC2(O)[C@@]13C[C@@H](OC(=O)[C@@H]3O)[C@@H](C)[C@@]21COC1=O (stereo not given in full) . Its GI50 was > 100 µM (inactive)

Entry under test: O=C1c2ccccc2CC12Cc1ccc3c(c1C2)CCC3 (stereo not given) . Its GI50 was 31 µM (inactive)

====

system: LOX IMVI; experiment: NCI tumour cell line growth inhibition, 48 h
Calls of active or inactive are those of the source. Cut-off read from the data, not from the text of the source: active = GI50 up to about 1.1 µM and inactive = higher.
Allowed answers: T for active, F for inactive

# count of solved cases: 5
Molecule: Cc1cc(C(C)(C)C)c(OCCCN2CCOCC2)c(C(C)(C)C)c1
Label Class: F
//
Molecule: CCOC(=O)/C(C#N)=C/c1ccc2c(c1)CC1(C2)Cc2cc(CC)c(C(C)O)cc2C1 (configuration not stated)
Label Class: F
//
Molecule: CC(=O)OCC1OC(n2c(-c3cccs3)c3c(c(C#N)c2=S)-c2ccccc2CC3)C(OC(C)=O)C(OC(C)=O)C1OC(C)=O (configuration not stated)
Label Class: F
//
Molecule: CCOC(=O)[C@H](CO)NC1=C(Cl)C(=O)c2c(O)ccc(O)c2C1=O
Label Class: F
//
Molecule: O=C1CC2CCC(C1)[S+]2[O-] (configuration not stated)
Label Class: F

Asked: I'd appreciate the recorded outcome for Cn1c2ccccc2c(=O)c2cccc(C(=O)NC(CCC(N)=O)C(=O)O)c21 (configuration not stated) from this test.
Given back: F

Asked: I'd appreciate the recorded outcome for OCC(O)COc1c(Cl)ccc(Cl)c1Cl (configuration not stated) from this test.
Given back: F

Asked: I'd appreciate the recorded outcome for COc1cccc(N(CN2C(=O)CCC2C(=O)O)C(C)=O)c1 (configuration not stated) from this test.
Given back: F

Asked: I'd appreciate the recorded outcome for COc1cc(CCCOC2OC(COC3OCC(O)C(O)C3O)C(O)C(O)C2O)cc2cc(-c3ccc4c(c3)OCO4)oc12 (configuration not stated) from this test.
Given back: F

Asked: I'd appreciate the recorded outcome for N=C(N)NS(=O)(=O)c1ccc(N/N=C2/CCOC2=O)cc1 from this test.
Given back: F

Asked: I'd appreciate the recorded outcome for Oc1ccccc1/C=N/Nc1nnc2c3ccccc3c3ccccc3c2n1 from this test.
Given back: F

Asked: I'd appreciate the recorded outcome for CN(C)CCNC(=O)c1cc(Cl)cc2ccc(-c3ccccc3)nc12 from this test.
Given back: F

Asked: I'd appreciate the recorded outcome for Oc1c(CNCCCN2CCCC2)cc(Cl)c2cccnc12 from this test.
Given back: F

Asked: I'd appreciate the recorded outcome for Cc1ccc2cc3cccc(C(=O)NCCN(C)C)c3nc2c1 from this test.
Given back: T

Asked: I'd appreciate the recorded outcome for CC(=O)OC1CC2(C)C(=CC1C1SCCS1)CCC1C2CCC2(C)C(OC(C)=O)CCC12 (configuration not stated) from this test.
Given back: F

Asked: I'd appreciate the recorded outcome for C#CCn1c(=O)ccn(/C(=C\C(=O)OCC)C(=O)OCC)c1=O from this test.
Given back: F
